Hey, just so you know, these numbers are from the CheMixHub viscosity set.

# ASSAY: xn = mol fraction of the nth substance listed
# APPLIED CONDITIONS: 298.15 K; 101 kPa; x2 = 0.8
PROPERTY: viscosity (mPa·s)
Give bare numbers, in mPa·s.

The examples below pair each entry with its known result.
[[record]]
compound = "CCCCCCCCO + CO"
reported_measurement = 1.314

[[record]]
compound = "CCCCCCCCO + CCCCO"
reported_measurement = 3.268

[[record]]
compound = "CCCCCCCCO + CCO"
reported_measurement = 1.897

[[record]]
compound = "CCCCCCCCO + CCCO"
reported_measurement = 2.762


Continue with the next compound.
Task: Look up viscosity: CC#N + CO
Result: 0.435

====

# ASSAY: xn = mol fraction of the nth substance listed
# APPLIED CONDITIONS: 318.15 K; 101 kPa; x2 = 0.15
Kindly supply the reported viscosity values for the records listed here.
Numbers only, in mPa·s.

[[record]]
compound = "CCCCCCCCO + CCCCO"
reported_measurement = 3.472

[[record]]
compound = "CCCCCCCCO + CCCO"
reported_measurement = 3.406

[[record]]
compound = "CCCCCCCCO + CCO"
reported_measurement = 3.331


Continue with the next compound.
Task: Look up viscosity: CCCCCCCCO + CO
Result: 3.263
